assay: Blood biochemical analysis and HE staining of tissues in HCT116 tumor-bearing nude mice; assay type: in vivo; conditions: tail vein once every two days, 12 times, blood 48 hours after the last treatment
We use 0.8 mmol/L as the dividing line for Triglyceride: on or above the line is Yes, below is No.

Task: Say whether CC(C)SSc1nc(N)nc2c1ncn2[C@H]1C[C@H](O)[C@@H](CO)O1 [D, 6-(isopropyldithio)-2′-deoxyguanosine] shows Triglyceride of 0.8 mmol/L or more.
Output: No

Task: Say whether Nc1nc2c(ncn2[C@H]2C[C@H](O)[C@@H](CO)O2)c(=S)[nH]1 [Compound 6-thio-dG, 6-thio-2′-deoxyguanosine, reference compound] shows Triglyceride of 0.8 mmol/L or more.
Output: Yes

Task: Say whether CCC(C)SSc1nc(N)nc2c1ncn2C1C[C@H](O)[C@@H](CO)O1 (stereo partly drawn) [Compound A, 6-(sec-butyldithio)-2′-deoxyguanosine] shows Triglyceride of 0.8 mmol/L or more.
Output: Yes

Task: Say whether Nc1nc(SSCc2ccc(F)cc2)c2ncn(C3C[C@H](O)[C@@H](CO)O3)c2n1 (stereo partly drawn) [B] shows Triglyceride of 0.8 mmol/L or more.
Output: No

Task: Say whether CCC(C)SSc1ncc[nH]1 (stereo not drawn) [PX-12, 1-methylpropyl-2-imidazolyl disulfide, reference compound] shows Triglyceride of 0.8 mmol/L or more.
Output: Yes

Task: Say whether CC(C)(C)SSc1nc(N)nc2c1ncn2C1C[C@H](O)[C@@H](CO)O1 (stereo partly drawn) [Compound C, 6-(tert-butyldithio)-2′-deoxyguanosine] shows Triglyceride of 0.8 mmol/L or more.
Output: Yes

* * *

tested on: human liver cancer cells HepG2; experiment: MTT assay, tumor cell growth inhibition, HepG2; format: cell-based; conditions: 48 hours
property label: IC50

The measured IC50 associated with CCC(C)SSc1nc(N)nc2c1ncn2C1C[C@H](O)[C@@H](CO)O1 (stereo partly drawn) [Compound A, 6-(sec-butyldithio)-2′-deoxyguanosine] reads 10 to 50 µM

The measured IC50 associated with `CC(C)SSc1nc(N)nc2c1ncn2[C@H]1C[C@H](O)[C@@H](CO)O1` reads < 10 µM

The measured IC50 associated with CCC(C)SSc1ncc[nH]1 (stereo not drawn) [PX-12, 1-methylpropyl-2-imidazolyl disulfide, reference compound] reads 10 to 50 µM

The measured IC50 associated with Nc1nc(SSCc2ccc(F)cc2)c2ncn(C3C[C@H](O)[C@@H](CO)O3)c2n1 (stereo partly drawn) reads < 10 µM

The measured IC50 associated with Nc1nc2c(ncn2[C@H]2C[C@H](O)[C@@H](CO)O2)c(=S)[nH]1 [Compound 6-thio-dG, 6-thio-2′-deoxyguanosine, reference compound] reads < 10 µM

The measured IC50 associated with CC(C)(C)SSc1nc(N)nc2c1ncn2C1C[C@H](O)[C@@H](CO)O1 (stereo partly drawn) reads 10 to 50 µM

* * *

Field: pIC50. Provide a value for each of the compounds that follow.
test system: human melanoma cells A375; assay: MTT assay, tumor cell growth inhibition, A375; assay type: cell-based; settings: A-375, 48 hours
Scale explanation: pIC50 corresponds to minus log10 of a concentration expressed in moles per litre.

The measured pIC50 associated with Nc1nc2c(ncn2[C@H]2C[C@H](O)[C@@H](CO)O2)c(=S)[nH]1 [Compound 6-thio-dG, 6-thio-2′-deoxyguanosine, reference compound] reads 6.40

The measured pIC50 associated with CC(C)(C)SSc1nc(N)nc2c1ncn2C1C[C@H](O)[C@@H](CO)O1 (stereo partly drawn) reads 5.51

The measured pIC50 associated with CCC(C)SSc1ncc[nH]1 (stereo not drawn) [PX-12, 1-methylpropyl-2-imidazolyl disulfide, reference compound] reads 5.53
